Source: paper PMC4833300

- Test system: intracellular T. cruzi amastigotes
- procedure_summary: Primary high-content intracellular T. cruzi amastigote assay
- Type: cell-based, Trypanosoma cruzi (Silvio X10/7 A1) in Vero cells
- applied_conditions: Trypanosoma cruzi; hits of the bio-actives screen, 10-point dose-response, top concentration 50μM, 72h; read-out: pEC50 (cruzi) (converted)
Consider the following compounds and their measured EC50 readings.

These recorded examples may help you get a feel for the data.
Cc1cccc(CN2CCN(C(c3ccccc3)c3ccc(Cl)cc3)CC2)c1 (stereo not drawn) [Meclizine] ... 5.01 µM
CC(C)(C)C(=O)OCOP(=O)(COCCn1cnc2c(N)ncnc21)OCOC(=O)C(C)(C)C [Adefovir Dipivoxil] ... 6.31 µM

Give EC50 for O=C1[C@H]2CCCC[C@H]2C(=O)N1CCCCN1CCN(c2nsc3ccccc23)CC1 [Perospirone]
6.31 µM
